system: K-562 leukemia; test: NCI-60 one-dose screen, 48 h (100 = growth as untreated, 0 = no growth, -100 = all killed); details: 10 µM unless noted
Compounds without any hit were thinned out: in the full panel of roughly 83,000, 20% have a hit. Calls of active or inactive are those of the source. Rule for the calls: active = growth percent below 10; inactive = the rest.
readout: growth

The recorded growth for entry CSc1nc2sc3c(c2c(=O)n1-c1ccc([N+](=O)[O-])cc1)CCCCC3 equals 94.1% (inactive)

Looking up N#CC1CCc2c(c(-c3cn[nH]c3C(F)(F)F)nc3c(F)cc4[nH]ncc4c23)C1 (stereo not drawn) , I found its growth recorded as 36.3% (inactive)

Lookup result for CC(=O)OC[C@]12CCC(C)(C)C[C@H]1[C@@]1(O)[C@H](O)C[C@@H]3[C@@]4(C)CCCNC(C)(C)[C@@H]4CC[C@@]3(C)[C@]1(C)CC2 ; measured growth: 106% (inactive)

###

We begin with a simple list: items and their reported growth.
system: RPMI-8226 leukemia; assay: NCI-60 one-dose screen, 48 h (100 = growth as untreated, 0 = no growth, -100 = all killed); settings: 10 µM unless noted
The panel holds about 83,000 compounds, 20% with a hit somewhere; the sample as a whole holds those more often.
Numeric answer only, unit % assumed.

molecule: C#CCOc1ccc2ncnc(Nc3cccc(NC(=O)C=C)c3)c2c1
unit text: %
meas value: 80.2

Measured growth of CCCNC(=O)Oc1ccc(/C(=C(/C)Cc2ccc(OC)cc2)c2ccc(OCCCN(C)C)cc2)cc1 : 77.3

Recorded growth (molecule COc1ccc(/C=C2\COc3ccc(O)cc3C2=O)c(OC)c1OC ): 8.76

Record C=CCc1c(O)c(C(=O)/C=C/c2ccc(Cl)cc2)c(OC)c2ccoc12 . Reported growth: 8.82

Per the records, this molecule ( CO[C@]12C=C/C(=C(/C(=O)OCc3cccnc3)C(=O)CCCCCCCC[C@@]3(OC)C=C/C(=C(/C(=O)OCc4cccnc4)C(=O)CCCCCCCC1)O3)O2 ) has growth equal to -9.22

Data point: COc1ccccc1Nc1nc2c(s1)C1=CC[C@H]3[C@@H]4CC[C@H]([C@H](C)CCCC(C)C)[C@@]4(C)CC[C@@H]3[C@@]1(C)CC2 ; growth = 111

For record Clc1ccc(Sc2cnc(-c3ccccc3)o2)cc1 the listed growth is 89.7

O=C1c2cccc(NCCN=Cc3cc(O)ccc3O)c2C(=O)c2c(NCCN=Cc3cc(O)ccc3O)cccc21 yielded growth of -60.1

Just so you know, measured growth for Cc1ccc(C(C(N)=O)C(C(N)=O)c2ccccc2)cc1 (centres undefined) came out at 95.4

###

System: SN12C renal
Experiment: NCI-60 one-dose screen, 48 h (100 = growth as untreated, 0 = no growth, -100 = all killed)
Conditions: 10 µM unless noted
Description: Growth inhibition of the SN12C human tumor cell line is measured as a screen for anti-cancer activity. Cells are grown in 96 well plates and exposed to the test compound for 48 hours. Compounds are tested at a single concentration, which is 10^-5 M for most compounds. The reported endpoint is percent growth (GI% or GIPRCNT), where numbers from 0 - 100% represent growth inhibition, and numbers from -100% - 0 represent cell death. For example, a value of 40 represents 60% growth inhibition. […]
Compounds without any hit were thinned out: in the full panel of roughly 83,000, 20% have a hit.
Would you please tag the item Yes when its growth is 40% or above, and No when it is below?

compound: COc1cc(/C=C\c2cc(/C=C\c3ccc(O)c(OC)c3)n(C(=O)COc3ccc(Cl)cc3Cl)n2)ccc1O
target of assay: SN12C renal
group label: No

Lookup: Could you verify whether the entry C=C1C(=O)O[C@H]2[C@H]1CC/C(COC(=O)N[C@H]1C[C@H](O[C@H]3C[C@](O)(C(=O)CO)Cc4c(O)c5c(c(O)c43)C(=O)c3c(OC)cccc3C5=O)O[C@@H](C)[C@H]1O)=C\CC[C@@]1(C)O[C@@H]21 shows growth of no less than 40%?
Found: No

Lookup: In plain terms: is recorded growth at least 40% for CC1=C(C(=O)OC(C)C)C(c2ccc3c(c2)OCO3)NC(=S)N1 (stereo not drawn) ?
Found: Yes

Lookup: # bool: growth of C[C@H](NC(=O)[C@@H](C)N)[C@H](Oc1ccc2c(cnn2-c2ccc(F)cc2)c1)c1ccc2c(c1)OCCO2 >= 40%
Found: Yes

Lookup: Please check the record N#Cc1nc(-c2ccccc2)oc1S(=O)(=O)N1CCOCC1 and state if its growth is at or above 40%.
Found: Yes

###

test system: SK-MEL-5 melanoma; experiment: NCI-60 one-dose screen, 48 h; settings: 10 µM unless noted
This is part of a sample that, as a whole, favours compounds with a hit. Of some 83,000 tested, about 20% had one in any assay. Calls of active or inactive are those of the source. The calls were made as follows: active = growth percent below 10; inactive = the rest.
Form entry, call: pick from active, inactive

Lookup: Record request — test call for COC(=O)c1cc(-c2ccc(S(C)(=O)=O)cc2)[nH]c1N/N=C/c1c(Cl)cccc1Cl
Found: inactive

Lookup: Test call, this molecule: COc1ccc2c(O)c(/C=C3\N=Nc4ncccc43)oc2c1C[C@H]1CCNC[C@H]1F
Found: active

Lookup: Lab log entry: CCOC(=O)c1c(NC(=O)c2ccc(C(C)C)cc2)sc2c(CN(C)C)c(O)ccc12 — outcome as called in the assay?
Found: inactive

Lookup: Please let me know the test result on file for C/C(=N\NC(=O)c1ccccc1O)c1cccc(/C(C)=N/NC(=O)c2ccccc2O)n1 .
Found: inactive

Lookup: Any idea what this test logged for S=C(Nc1ccc(-c2nc(N3CCOCC3)c3cccn3n2)cc1)Nc1cccnc1 ?
Found: inactive

Lookup: Check the results log: what was the call for CN(C)CCNC(=O)c1cccc(-c2cnc3ccc(-c4ccc5c(c4)OCO5)nn23)c1 ?
Found: inactive

Lookup: For this molecule, state the assay outcome: COc1ccc2c3c([nH]c2c1)C(=O)c1nc(C)ccc1C3=O
Found: active

Lookup: Returns: the outcome recorded for CC(=O)Nc1nc2ccc(NS(=O)(=O)c3cccc4c(N(C)C)cccc34)cc2[nH]1 in this assay.
Found: inactive

###

system: EKVX NSCLC; assay: NCI-60 one-dose screen, 48 h; settings: 10 µM unless noted
This is part of a sample that, as a whole, favours compounds with a hit. Of some 83,000 tested, about 20% had one in any assay. Calls of active or inactive are those of the source. How the source made its calls: active means growth percent below 10; inactive means the rest.
Please answer using one outcome listed in 1 (yes) = active, 0 (no) = inactive

Examples from the recorded data:
molecule: CCOC(=O)Cn1c(O)c(N=Nc2ccc(S(N)(=O)=O)cc2)c2cc(Br)ccc21
target of assay: EKVX NSCLC
group label: 0 (no)

molecule: CCCC(=O)NC(c1ccc2c(c1)OCO2)c1ccc2cccnc2c1O (centres undefined)
target of assay: EKVX NSCLC
group label: 0 (no)

molecule: COc1cc(CNS(=O)(=O)c2ccc(C)cc2)ccc1OCc1cn(-c2ccc(F)cc2)nn1
target of assay: EKVX NSCLC
group label: 0 (no)

molecule: CCNc1cc(-c2cccc(OC(F)(F)F)c2)nc2ccc(N3CCCC3)cc12
target of assay: EKVX NSCLC
group label: 0 (no)

molecule: COc1cc(/C=C\c2cc(/C=C\c3ccc(O)c(OC)c3)n(C(=O)COc3ccc(Cl)cc3Cl)n2)ccc1O
target of assay: EKVX NSCLC
group label: 0 (no)

Continue with the next molecule.
Lookup: Name the outcome recorded for N#Cc1c(N)nnn1Cc1cc(=O)oc2c1ccc1ccccc12 in the assay.
Found: 0 (no)

###

tested on: OVCAR-8 ovarian; test: NCI-60 one-dose screen, 48 h (100 = growth as untreated, 0 = no growth, -100 = all killed); settings: 10 µM unless noted
The panel holds about 83,000 compounds, 20% with a hit somewhere; the sample as a whole holds those more often.
growth overview
# unit: % | format: bare number

Solved entries:
cpd smiles: CN1CCN(Cc2ccc(NC(=O)c3cncc(C#Cc4cnc(N)c5ccccc45)c3)cc2C(F)(F)F)CC1
target of assay: OVCAR-8 ovarian
growth / %: -82.5
--
cpd smiles: C=CCc1c2c(c(OC)c3ccoc13)C(=O)/C(=C/c1ccccc1OC)O2
target of assay: OVCAR-8 ovarian
growth / %: 39.1
--
cpd smiles: CCOc1ccc(NC(=O)CSc2oc(-c3ccccc3)nc2S(=O)(=O)c2ccc(F)cc2)cc1
target of assay: OVCAR-8 ovarian
growth / %: 49.5
--
cpd smiles: O=C(CSc1nc(-c2ccccc2)[nH]c1S(=O)(=O)c1ccccc1)NC1CC1
target of assay: OVCAR-8 ovarian
growth / %: 97.2
--
cpd smiles: CCOC(=O)c1cc(-c2ccc([N+](=O)[O-])cc2)n(-c2ccc(C(=O)O)c(O)c2)c1C
target of assay: OVCAR-8 ovarian
growth / %: 38.6
--
cpd smiles: O=C(NNc1nccc(Nc2ccc(S(=O)(=O)Nc3ccncc3)cc2)n1)c1ccccc1
target of assay: OVCAR-8 ovarian
growth / %: 99.4

Documented growth of CCOC(=O)c1c(NC(=O)c2ccc(C(C)C)cc2)sc2c(CN(C)C)c(O)ccc12 : 89.1

// recorded growth for O=C(Nc1ccc(-c2nc(N3CCOCC3)c3cccn3n2)cc1)Nc1cccnc1 : 1.49

The recorded growth for COc1ccc(/C=N/NC(=O)CCN2c3ccccc3Sc3ccccc32)cc1 is 99.3

The measured values listed here are drawn from PubChem BioAssay (NCI).
